Parameter pIC50, tested on 5-hydroxytryptamine receptor 4 (Rattus norvegicus), listed per item.
Sequence (Q62758 whole entry): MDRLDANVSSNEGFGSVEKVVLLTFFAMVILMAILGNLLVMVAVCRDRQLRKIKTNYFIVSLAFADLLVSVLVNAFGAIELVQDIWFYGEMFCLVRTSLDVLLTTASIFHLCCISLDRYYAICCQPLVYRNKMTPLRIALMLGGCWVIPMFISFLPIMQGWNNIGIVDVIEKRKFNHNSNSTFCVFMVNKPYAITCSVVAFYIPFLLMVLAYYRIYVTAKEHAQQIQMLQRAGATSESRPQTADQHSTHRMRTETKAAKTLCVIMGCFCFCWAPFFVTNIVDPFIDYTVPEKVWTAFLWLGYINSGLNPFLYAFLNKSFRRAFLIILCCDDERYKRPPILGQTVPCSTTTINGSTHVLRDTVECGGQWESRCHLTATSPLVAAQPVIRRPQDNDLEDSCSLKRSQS
pIC50: −log10 of the molar value.

Which measured pIC50 value corresponds to c1ccc2nc(N3CCNCC3)ccc2c1 ?
< 5.00

Same question for Fc1ccc2c(c1)nc(N1CCNCC1)c1cccn12 please.
< 5.00

* * *

SYSTEM TESTED: 5-hydroxytryptamine receptor 2A (Rattus norvegicus)
Sequence (P14842 whole entry): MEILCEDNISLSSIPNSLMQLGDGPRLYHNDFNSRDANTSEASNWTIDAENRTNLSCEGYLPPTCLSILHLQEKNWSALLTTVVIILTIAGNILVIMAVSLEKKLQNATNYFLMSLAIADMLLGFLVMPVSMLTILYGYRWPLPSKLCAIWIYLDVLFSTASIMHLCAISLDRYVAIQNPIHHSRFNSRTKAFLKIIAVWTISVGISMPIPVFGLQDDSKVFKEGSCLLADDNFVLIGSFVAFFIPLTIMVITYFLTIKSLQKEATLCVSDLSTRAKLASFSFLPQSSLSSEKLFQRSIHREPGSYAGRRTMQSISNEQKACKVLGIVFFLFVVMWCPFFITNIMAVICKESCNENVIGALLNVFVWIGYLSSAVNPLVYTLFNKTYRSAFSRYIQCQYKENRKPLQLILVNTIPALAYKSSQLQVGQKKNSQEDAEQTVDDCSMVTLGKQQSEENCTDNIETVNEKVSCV
So I've got a bunch of molecules here, and I need their IC50 values.
Return type: number; implicit unit nM.

Dear colleague, I am looking for the recorded IC50 of the following molecule: Fc1cccc2nc(N3CCNCC3)c3cccn3c12
761

One more molecule: Fc1ccc2c(c1)nc(N1CCNCC1)c1cccn12
489

// same read-out, input: c1ccc2nc(N3CCNCC3)ccc2c1 [QUIPAZINE]
1400

* * *

SYSTEM TESTED: 5-hydroxytryptamine receptor 1B (Rattus norvegicus, UniProt P28564)
Sequence (P28564 whole entry): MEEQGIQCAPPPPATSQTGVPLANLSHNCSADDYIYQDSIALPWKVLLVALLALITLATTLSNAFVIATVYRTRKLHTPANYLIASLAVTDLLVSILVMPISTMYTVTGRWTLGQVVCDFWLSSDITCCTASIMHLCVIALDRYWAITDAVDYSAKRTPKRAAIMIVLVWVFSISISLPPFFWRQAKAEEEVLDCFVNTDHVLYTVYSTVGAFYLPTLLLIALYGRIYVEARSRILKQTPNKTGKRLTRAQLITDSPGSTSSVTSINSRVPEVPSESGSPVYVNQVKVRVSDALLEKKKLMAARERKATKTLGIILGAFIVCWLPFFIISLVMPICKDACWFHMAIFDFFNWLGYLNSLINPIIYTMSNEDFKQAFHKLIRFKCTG
OBSERVABLE: pIC50
// scale note: pIC50 = -log10(conc_M); give the bare number

May I ask what pIC50 has been recorded for c1ccc2nc(N3CCNCC3)ccc2c1 ?
6.42

* * *

SYSTEM TESTED: 5-hydroxytryptamine receptor 2C (Rattus norvegicus, UniProt P08909)
Sequence (P08909 whole entry): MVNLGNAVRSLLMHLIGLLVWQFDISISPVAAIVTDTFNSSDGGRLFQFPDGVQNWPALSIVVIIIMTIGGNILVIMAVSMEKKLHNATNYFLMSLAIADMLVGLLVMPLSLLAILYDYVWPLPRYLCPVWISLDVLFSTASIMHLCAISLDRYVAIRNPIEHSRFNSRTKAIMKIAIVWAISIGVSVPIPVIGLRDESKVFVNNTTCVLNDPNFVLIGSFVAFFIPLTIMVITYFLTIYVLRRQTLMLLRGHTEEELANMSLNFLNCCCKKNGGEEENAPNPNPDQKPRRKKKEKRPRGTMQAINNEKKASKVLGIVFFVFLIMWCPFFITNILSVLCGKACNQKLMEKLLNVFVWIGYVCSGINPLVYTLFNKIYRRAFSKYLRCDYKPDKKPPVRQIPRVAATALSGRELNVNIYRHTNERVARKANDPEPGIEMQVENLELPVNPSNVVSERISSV
PROTOCOL NOTES: Inhibition of radiolabeled [3H]-Ketanserin ligand binding to 5-hydroxytryptamine 2C receptor
OBSERVABLE: IC50 (nM)
The reply should contain only the number, in nM.

State its IC50 on 5-hydroxytryptamine receptor 2C (Rattus norvegicus, UniProt P08909): CCC(CC)NC(=O)[C@@H]1C=C2c3cccc4c3c(cn4C)C[C@H]2N(C)C1 [METHSERGIDE]
3.1

* * *

Sequence of the target: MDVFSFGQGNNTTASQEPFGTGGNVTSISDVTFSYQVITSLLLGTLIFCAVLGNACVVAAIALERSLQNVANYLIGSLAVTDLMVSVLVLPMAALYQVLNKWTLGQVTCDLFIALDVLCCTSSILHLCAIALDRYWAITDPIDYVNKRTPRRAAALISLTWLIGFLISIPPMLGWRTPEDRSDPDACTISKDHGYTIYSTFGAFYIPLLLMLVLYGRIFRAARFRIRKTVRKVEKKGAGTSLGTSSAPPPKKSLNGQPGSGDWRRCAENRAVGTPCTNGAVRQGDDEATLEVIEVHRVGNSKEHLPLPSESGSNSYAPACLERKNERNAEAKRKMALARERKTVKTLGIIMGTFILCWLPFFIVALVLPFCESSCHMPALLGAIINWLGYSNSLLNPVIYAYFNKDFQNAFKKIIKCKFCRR
OBSERVABLE: IC50 (µM)
Response body: numeric value in µM, unit text excluded.

Recorded IC50 of CN1CCN(c2nc3cc(F)ccc3n3cccc23)CC1 , please.
0.138

* * *

System: NG108-15
PROTOCOL NOTES: Effective concentration for uptake of [14C]guanidinium on NG108-15 cells
Type: functional, cell-based
MEASUREMENT PARAMETERS: Murinae
pEC50: −log10 of the molar value.
Given measured pEC50, output Y if it is greater than or equal to 8 and N if not.

hey, is pEC50 for this one >= 8? CN1CCN(c2nc3cc(F)ccc3n3cccc23)CC1
Y

Lookup C=CCN1CCN(c2nc3cc(F)ccc3n3cccc23)CC1
N

Input CN1CCN(c2nc3c(F)cccc3n3cccc23)CC1
Y

Subsequent entry: CN1CCN(c2cnc3ccccc3n2)CC1
N

Record: Fc1cccc2nc(N3CCNCC3)c3cccn3c12
N

Next entry: Fc1ccc2c(c1)nc(N1CCNCC1)c1cccn12
Y

Next compound up: c1ccc2nc(N3CCNCC3)ccc2c1
N

And C=CCN1CCN(c2nc3cccc(F)c3n3cccc23)CC1 ?
N

Next compound: CCCN1CCN(c2nc3cc(F)ccc3n3cccc23)CC1
N

CCCN1CCN(c2nc3cccc(F)c3n3cccc23)CC1 ?
N
